Source listed as ChEMBL document CHEMBL3727350.

Biological target: Transient receptor potential cation channel subfamily M member 7 (Mus musculus)
Test: Inhibition of Tet-induced Flag-tagged mouse TRPM7 expressed in HEK293 cells assessed as inhibition of channel-mediated cell death in presence of Mg2+ incubated for 24 to 48 hrs by propidium iodide uptake assay
Format: cell-based
Design: concentration or dose not given beside the values
Conditions: concentration not given here
Reported inhibition is given for each of the following molecules.
Measurement Name: inhibition (%)

smiles_entry=O=C(Nc1cccc([N+](=O)[O-])c1)c1ccccc1O study_system="Transient receptor potential cation channel subfamily M member 7 (Mus musculus)" measure_unit=% reported=60
smiles_entry=Cc1ccc(C(=O)/C=C/C(=O)O)c(C)c1F study_system="Transient receptor potential cation channel subfamily M member 7 (Mus musculus)" measure_unit=% reported=60
smiles_entry=O=c1[nH]c2c(Cl)c(Cl)ccc2c(O)c1-c1ccccc1 study_system="Transient receptor potential cation channel subfamily M member 7 (Mus musculus)" measure_unit=% reported=60
